# target: T1, hGITR.mFc (human)
# T1 construct: soluble dimeric construct with mouse Fc; also called dimeric human GITR
# T1 chain: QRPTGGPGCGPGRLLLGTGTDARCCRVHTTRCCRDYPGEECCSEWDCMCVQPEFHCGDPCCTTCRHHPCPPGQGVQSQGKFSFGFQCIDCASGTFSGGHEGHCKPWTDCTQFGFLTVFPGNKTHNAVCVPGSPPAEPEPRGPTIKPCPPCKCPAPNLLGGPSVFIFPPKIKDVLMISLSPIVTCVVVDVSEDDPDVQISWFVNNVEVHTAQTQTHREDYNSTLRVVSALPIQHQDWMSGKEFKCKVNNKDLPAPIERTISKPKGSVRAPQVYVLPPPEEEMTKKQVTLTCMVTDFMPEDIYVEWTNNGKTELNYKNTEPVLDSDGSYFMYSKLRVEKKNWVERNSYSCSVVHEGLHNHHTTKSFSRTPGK
# assay_summary: SPR 37C, mAb capture
# Protocol: (Table 3). […] GITR proteins were injected over the sensor surface at a flow rate of 30 μL/minute. […] Antibody-reagent association was monitored for 4 minutes while dissociation in HBS-ET running buffer (10 mM HEPES, 150 mM NaCl, 3 mM EDTA, 0.05% (v/v) Surfactant P20, pH 7.4) was monitored for 10 minutes. Kinetic association (kₐ) and dissociation (kd) rate constants were determined by fitting the real-time sensorgrams to a 1:1 binding model using Scrubber 2.0c curve fitting software. […]
As shown below, each of these binders has a reported kon value.
Return type: number; implicit unit M⁻¹ s⁻¹.

>  <binder>
H1H14493P (antibody, human IgG1, V domains shown, human IgG1 (H1H)) VH: QVQLVESGGGVVQPGRSLRLSCAASGFNFRSYGMHWVRQAPGKGLEWVAVIWYDGSNKYYADSVKGRFTISRDSSRDTLFLQMNSLRAGDTAVYYCARGGMLGRDYYYGMDVWGQGTTVTVSS VL: DIQMTQSPSSLSASVGDRVTITCRASQGIRNDLGWYQQKPGKAPKRLIYAASSLQSGVPSRFSGSGSGTEFTLTISSLQPEDFATYYCLQHNSYPNTFGQGTKLEIK

>  <reported_metric>
kon

>  <measured_value>
524000

$$$$

Would you kindly look at the next entry?
What value of measured kon is listed for H4H14516P (antibody, human IgG4, V domains shown, human IgG4 (H4H)) VH: EVQLVESGGGLVQPGGSLRLSCAASGFTFSNYEMYWVRQAPGKGLEWVSYISSSGTTIYYADSVKGRFSVSRENARSSLYLQMNSLRVEDSAVYFCAKYNWNSFYGLDVWGQGTTVTVSS VL: AIQMTQSPSSLSASVGDRVTITCRASQDIRNDLGWYQQKPGKAPKLLISAASSLQGGVPSRFSGSGSGTDFTLTISSLQPADFATYYCLQEYNYALTFGGGTKVEIK ?
1.68e+06
